Molecular target: Cannabinoid receptor 1 (Homo sapiens)
Assay: Binding affinity to human CB1R-nYFP-CB1R-cYFP homodimerization co-transfected in HEK293T cells at 4 uM incubated for 4 hrs by BiFC assay
Assay type: cell-based
Active and inactive are the calls of the source. No cut-off for these calls is given here.
property_name: Activity

CCC(CC)C(=O)N(Cc1ccccc1)Cc1ccccc1 : inactive
CC(C)NC(=O)Cn1ccc2ccc(OCc3ccccc3)cc21 : inactive
CC(C)CNC(=O)c1oc2ccccc2c1COc1ccccc1 : inactive

###

Target: 5-hydroxytryptamine receptor 2A (Homo sapiens) (UniProt P28223)
Sequence (P28223 whole entry): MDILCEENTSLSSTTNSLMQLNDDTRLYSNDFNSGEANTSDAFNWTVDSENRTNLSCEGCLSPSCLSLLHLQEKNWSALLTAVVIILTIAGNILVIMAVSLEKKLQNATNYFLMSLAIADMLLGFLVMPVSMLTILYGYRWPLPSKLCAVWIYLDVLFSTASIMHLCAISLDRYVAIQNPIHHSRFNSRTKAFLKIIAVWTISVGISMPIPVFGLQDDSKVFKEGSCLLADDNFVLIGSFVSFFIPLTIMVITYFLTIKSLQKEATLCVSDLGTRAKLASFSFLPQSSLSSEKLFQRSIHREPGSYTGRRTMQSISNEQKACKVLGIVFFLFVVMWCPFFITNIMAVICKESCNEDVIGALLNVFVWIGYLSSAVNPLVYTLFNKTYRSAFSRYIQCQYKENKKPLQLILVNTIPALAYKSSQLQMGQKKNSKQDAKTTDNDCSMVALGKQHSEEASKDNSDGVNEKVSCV
Assay: Binding affinity to human 5HT2AR-nYFP-5HT2AR-cYFP homodimerization co-transfected in HEK293T cells at 4 uM incubated for 4 hrs by BiFC assay
Assay type: cell-based
Activity calls are given as the source filed them. No cut-off for these calls is given here.
// allowed return values: active, inactive

Here are 3 molecules together with their reported answers.
CCC(CC)C(=O)N(Cc1ccccc1)Cc1ccccc1 : active
C=CCNC(=O)c1cn(-c2ccccc2)nc1-c1cccs1 : inactive
CC(C)NC(=O)Cn1ccc2ccc(OCc3ccccc3)cc21 : active

Consider the additional molecule presented here.
Hey, what did the test say about CC(C)CNC(=O)c1oc2ccccc2c1COc1ccccc1 ?
active
